The reader will find reported pIC50 values listed item by item below.
Biological target: Prostaglandin G/H synthase 2 (Homo sapiens)
Experiment: Inhibition of purified recombinant human Prostaglandin G/H synthase 2
// field semantics: pIC50 = negative decimal log of concentration (mol/L)

STRUCTURE SMILES | pIC50
CS(=O)(=O)Nc1cc2c(cc1Sc1ncc(Cl)cc1Cl)C(=O)CC2 | 6.44
CCc1csc(Sc2cc3c(cc2NS(C)(=O)=O)COC3=O)n1 | 6.00
CSc1csc(Sc2cc3c(cc2NS(C)(=O)=O)COC3=O)n1 | 6.54
CCc1csc(Sc2cc3c(cc2NS(C)(=O)=O)CCC3=O)n1 | 6.55

**Q:** Would you mind telling me what pIC50 value was observed for Cc1csc(Sc2cc3c(cc2NS(C)(=O)=O)CCC3=O)n1 ?
**A:** 6.42

**Q:** Would you mind telling me what pIC50 value was observed for CS(=O)(=O)Nc1cc2c(cc1Sc1nccs1)C(=O)OC2 ?
**A:** 6.21

**Q:** Would you mind telling me what pIC50 value was observed for C=Cc1csc(Sc2cc3c(cc2NS(C)(=O)=O)COC3=O)n1 ?
**A:** 6.51

**Q:** Would you mind telling me what pIC50 value was observed for Cc1ccc(Sc2cc3c(cc2NS(C)(=O)=O)CCC3=O)nc1 ?
**A:** 6.00

**Q:** Would you mind telling me what pIC50 value was observed for CS(=O)(=O)Nc1cc2c(cc1Sc1ccccn1)C(=O)CC2 ?
**A:** 6.09

**Q:** Would you mind telling me what pIC50 value was observed for Cc1cnc(Sc2cc3c(cc2NS(C)(=O)=O)CCC3=O)s1 ?
**A:** 5.82

**Q:** Would you mind telling me what pIC50 value was observed for CS(=O)(=O)Nc1cc2c(cc1Sc1ncccc1Cl)C(=O)CC2 ?
**A:** 6.28

**Q:** Would you mind telling me what pIC50 value was observed for CS(=O)(=O)Nc1cc2c(cc1Sc1nccs1)C(=O)CC2 ?
**A:** 6.32

**Q:** Would you mind telling me what pIC50 value was observed for Cc1nc(Sc2cc3c(cc2NS(C)(=O)=O)CCC3=O)sc1C ?
**A:** 5.77

**Q:** Would you mind telling me what pIC50 value was observed for Cc1csc(Sc2cc3c(cc2NS(C)(=O)=O)COC3=O)n1 ?
**A:** 5.16

---

Biological target: Prostaglandin G/H synthase 2 (Homo sapiens, UniProt P35354)
Sequence (P35354 whole entry): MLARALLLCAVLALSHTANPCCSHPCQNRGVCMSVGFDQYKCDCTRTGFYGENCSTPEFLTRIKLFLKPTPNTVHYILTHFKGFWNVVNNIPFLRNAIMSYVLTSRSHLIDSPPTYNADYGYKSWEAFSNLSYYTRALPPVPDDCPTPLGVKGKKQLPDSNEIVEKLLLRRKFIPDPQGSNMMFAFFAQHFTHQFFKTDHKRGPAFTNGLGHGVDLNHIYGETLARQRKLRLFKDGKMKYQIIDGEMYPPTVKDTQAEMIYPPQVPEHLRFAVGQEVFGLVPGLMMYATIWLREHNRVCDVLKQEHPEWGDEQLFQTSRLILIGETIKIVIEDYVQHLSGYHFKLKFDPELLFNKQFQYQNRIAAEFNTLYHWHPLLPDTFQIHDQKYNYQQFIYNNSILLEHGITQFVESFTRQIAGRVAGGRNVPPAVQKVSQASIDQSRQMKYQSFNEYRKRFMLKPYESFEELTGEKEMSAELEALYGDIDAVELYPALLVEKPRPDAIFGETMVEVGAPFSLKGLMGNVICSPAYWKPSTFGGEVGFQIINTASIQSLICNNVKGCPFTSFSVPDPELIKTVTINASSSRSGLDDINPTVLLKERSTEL
Assay: Inhibition of human Prostaglandin G/H synthase 2 expressed in CHO (chinese hamster ovary) cells
Assay type: cell-based
ASSAY METRIC: IC50
Please give the number followed by its unit.

Recorded results for 2 compounds are shown here.
STRUCTURE SMILES | SYSTEM NAME | ASSAY METRIC | EXPERIMENTAL VALUE
CCc1csc(Sc2cc3c(cc2NS(C)(=O)=O)COC3=O)n1 | Prostaglandin G/H synthase 2 (Homo sapiens, UniProt P35354) | IC50 | 13 nM
CS(=O)(=O)Nc1cc2c(cc1Sc1nccs1)C(=O)OC2 | Prostaglandin G/H synthase 2 (Homo sapiens, UniProt P35354) | IC50 | 27 nM

// next entry
**Q:** Would you mind telling me what IC50 value was observed for CSc1csc(Sc2cc3c(cc2NS(C)(=O)=O)COC3=O)n1 ?
**A:** 11000 nM

---

Molecular target: Prostaglandin G/H synthase 2 (Homo sapiens)
Sequence (P35354 whole entry): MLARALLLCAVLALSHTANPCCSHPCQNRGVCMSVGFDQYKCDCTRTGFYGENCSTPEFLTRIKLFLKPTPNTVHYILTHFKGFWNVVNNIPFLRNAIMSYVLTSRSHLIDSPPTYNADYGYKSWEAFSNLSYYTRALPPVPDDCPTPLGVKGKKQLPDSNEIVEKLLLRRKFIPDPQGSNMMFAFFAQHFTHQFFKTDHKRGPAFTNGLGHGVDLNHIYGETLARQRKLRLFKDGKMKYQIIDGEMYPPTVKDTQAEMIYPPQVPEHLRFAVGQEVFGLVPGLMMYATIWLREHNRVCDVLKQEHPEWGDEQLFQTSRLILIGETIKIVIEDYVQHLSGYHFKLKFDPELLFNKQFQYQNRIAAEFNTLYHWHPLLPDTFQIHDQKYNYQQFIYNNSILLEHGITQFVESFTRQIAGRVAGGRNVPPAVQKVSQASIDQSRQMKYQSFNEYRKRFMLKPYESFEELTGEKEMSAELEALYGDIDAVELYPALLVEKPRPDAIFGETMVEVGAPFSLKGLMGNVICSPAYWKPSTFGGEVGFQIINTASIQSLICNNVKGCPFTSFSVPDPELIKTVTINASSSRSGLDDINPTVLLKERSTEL
Test: Inhibition of human Prostaglandin G/H synthase 2 expressed in CHO (chinese hamster ovary) cells
Assay type: cell-based
The reader will find reported IC50 values listed item by item below.
I only need the number, in nM, no unit after it.

**Q:** Would you mind telling me what IC50 value was observed for C=Cc1csc(Sc2cc3c(cc2NS(C)(=O)=O)COC3=O)n1 ?
**A:** 140

**Q:** Would you mind telling me what IC50 value was observed for CS(=O)(=O)Nc1cc2c(cc1Sc1ncccc1Cl)C(=O)CC2 ?
**A:** 220

**Q:** Would you mind telling me what IC50 value was observed for Cc1csc(Sc2cc3c(cc2NS(C)(=O)=O)COC3=O)n1 ?
**A:** 43

**Q:** Would you mind telling me what IC50 value was observed for Cc1csc(Sc2cc3c(cc2NS(C)(=O)=O)CCC3=O)n1 ?
**A:** 30

**Q:** Would you mind telling me what IC50 value was observed for Cc1cnc(Sc2cc3c(cc2NS(C)(=O)=O)CCC3=O)s1 ?
**A:** 870

**Q:** Would you mind telling me what IC50 value was observed for CS(=O)(=O)Nc1cc2c(cc1Sc1ncc(Cl)cc1Cl)C(=O)CC2 ?
**A:** 120

**Q:** Would you mind telling me what IC50 value was observed for Cc1ccc(Sc2cc3c(cc2NS(C)(=O)=O)CCC3=O)nc1 ?
**A:** 640

**Q:** Would you mind telling me what IC50 value was observed for CS(=O)(=O)Nc1cc2c(cc1Sc1ccccn1)C(=O)CC2 ?
**A:** 500

**Q:** Would you mind telling me what IC50 value was observed for CS(=O)(=O)Nc1cc2c(cc1Sc1nccs1)C(=O)CC2 ?
**A:** 320

**Q:** Would you mind telling me what IC50 value was observed for CCc1csc(Sc2cc3c(cc2NS(C)(=O)=O)CCC3=O)n1 ?
**A:** 49

---

The reader will find reported pIC50 values listed item by item below.
Molecular target: Prostaglandin G/H synthase 1 (Homo sapiens, UniProt P23219)
Sequence (P23219 whole entry): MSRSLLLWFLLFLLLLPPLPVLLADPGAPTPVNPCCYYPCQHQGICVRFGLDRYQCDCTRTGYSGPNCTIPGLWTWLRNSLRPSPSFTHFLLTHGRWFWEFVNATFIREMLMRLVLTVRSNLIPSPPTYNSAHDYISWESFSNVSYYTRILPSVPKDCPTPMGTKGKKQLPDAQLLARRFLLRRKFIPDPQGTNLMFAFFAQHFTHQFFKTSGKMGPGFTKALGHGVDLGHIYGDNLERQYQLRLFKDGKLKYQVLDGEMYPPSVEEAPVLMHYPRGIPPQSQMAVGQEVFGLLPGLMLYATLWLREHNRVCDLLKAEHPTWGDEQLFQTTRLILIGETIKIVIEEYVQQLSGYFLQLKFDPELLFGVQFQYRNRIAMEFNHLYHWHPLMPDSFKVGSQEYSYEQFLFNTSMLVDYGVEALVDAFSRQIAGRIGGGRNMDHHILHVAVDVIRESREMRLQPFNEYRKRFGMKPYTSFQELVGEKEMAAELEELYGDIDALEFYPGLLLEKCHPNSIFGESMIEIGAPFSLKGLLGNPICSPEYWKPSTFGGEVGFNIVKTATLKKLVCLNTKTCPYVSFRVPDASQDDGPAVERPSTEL
Test: Inhibition of purified recombinant human Prostaglandin G/H synthase 1
pIC50: −log10 of the molar value.

Recorded results for 10 compounds are shown here.
STRUCTURE SMILES | EXPERIMENTAL VALUE
CS(=O)(=O)Nc1cc2c(cc1Sc1ncc(Cl)cc1Cl)C(=O)CC2 | < 4.00
Cc1cnc(Sc2cc3c(cc2NS(C)(=O)=O)CCC3=O)s1 | < 4.00
CCc1csc(Sc2cc3c(cc2NS(C)(=O)=O)COC3=O)n1 | < 4.00
CS(=O)(=O)Nc1cc2c(cc1Sc1ccc(F)cc1F)C(=O)CC2 | < 4.00
CS(=O)(=O)Nc1cc2c(cc1Sc1ccccn1)C(=O)CC2 | < 4.00
C=Cc1csc(Sc2cc3c(cc2NS(C)(=O)=O)COC3=O)n1 | < 4.00
CCc1csc(Sc2cc3c(cc2NS(C)(=O)=O)CCC3=O)n1 | ~4.00
Cc1csc(Sc2cc3c(cc2NS(C)(=O)=O)COC3=O)n1 | < 4.00
CS(=O)(=O)Nc1cc2c(cc1Sc1nccs1)C(=O)CC2 | < 4.00
CS(=O)(=O)Nc1cc2c(cc1Sc1nccs1)C(=O)OC2 | < 4.00

// next entry
**Q:** Would you mind telling me what pIC50 value was observed for CSc1csc(Sc2cc3c(cc2NS(C)(=O)=O)COC3=O)n1 ?
**A:** < 4.00

All values here come from ChEMBL document CHEMBL1132512.
